Quick list: MIC per entry.
Test system: Staphylococcus aureus
Measurement Protocol: Antibacterial activity against Staphylococcus aureus SH1000 cultured in iron rich media assessed as reduction in bacterial cell growth
Type: functional
Please state the figure in µM; there is no need to write the unit.

CCCCCCCCCC[C@H](O)C[C@H](O)[C@H](CC(C)C)[C@H](O)c1cc(O)cc(O)c1: 8
CC(C)C[C@H]([C@H](O)c1cc(O)cc(O)c1)[C@@H](O)C[C@@H](O)CC[C@H](C)C[C@H](C)C[C@H](C)CO: 500

I am curious: what MIC value has been reported for CC(=O)[C@@H](C)C[C@@H](C)C[C@@H](C)CC[C@H](O)C[C@H](O)[C@H](CC(C)C)[C@H](O)c1cc(O)cc(O)c1 ?
500
